Provide the reported percent recovery normalized to WT RDE-4 of each item.
# tested_system: DCR-1•DRH-1 complex (DCR-1•(OSF)DRH-1) (C. elegans, UniProt P34529 1-1910; G5EDI8 1-1037)
# method: pull-down

Example cases with answers are listed next.
1. RDE-4 dsRBM1 point mutant R1^AAR2R3 (K89A/K90A) (natural protein, C. elegans, UniProt G5EBF5 1-385, looked up) MDLTKLTFESVFGGSDVPMKPSRSEDNKTPRNRTDLEMFLKKTPLMVLEEAAKAVYQKTPTWGTVELPEGFEMTLILNEITVKGQATSAAAARQKAAVEYLRKVVEKGKHEIFFIPGTTKEEALSNIDQISDKAEELKRSTSDAVQDNDNDDSIPTSAEFPPGISPTENWVGKLQEKSQKSKLQAPIYEDSKNERTERFLVICTMCNQKTRGIRSKKKDAKNLAAWLMWKALEDGIESLESYDMVDVIENLEEAEHLLEIQDQASKIKDKHSALIDILSDKKRFSDYSMDFNVLSVSTMGIHQVLLEISFRRLVSPDPDDLEMGAEHTQTEEIMKATAEKEKLRKKNMPDSGPLVFAGHGSSAEEAKQCACKSAIIHFNTYDFTD    > 100%
2. RDE-4 dsRBM1 and dsRBM2 point mutant R1^AAR2^AAR3 (K89A/K90A/K217A/K218A) (natural protein, C. elegans, UniProt G5EBF5 1-385, looked up) MDLTKLTFESVFGGSDVPMKPSRSEDNKTPRNRTDLEMFLKKTPLMVLEEAAKAVYQKTPTWGTVELPEGFEMTLILNEITVKGQATSAAAARQKAAVEYLRKVVEKGKHEIFFIPGTTKEEALSNIDQISDKAEELKRSTSDAVQDNDNDDSIPTSAEFPPGISPTENWVGKLQEKSQKSKLQAPIYEDSKNERTERFLVICTMCNQKTRGIRSKAADAKNLAAWLMWKALEDGIESLESYDMVDVIENLEEAEHLLEIQDQASKIKDKHSALIDILSDKKRFSDYSMDFNVLSVSTMGIHQVLLEISFRRLVSPDPDDLEMGAEHTQTEEIMKATAEKEKLRKKNMPDSGPLVFAGHGSSAEEAKQCACKSAIIHFNTYDFTD    > 100%

Returns the measured percent recovery normalized to WT RDE-4 for the input binder. Input: RDE-4 truncation R3 (dsRBM3 only, begins with M244) (domain or fragment, C. elegans, UniProt G5EBF5 244-385, looked up) MVDVIENLEEAEHLLEIQDQASKIKDKHSALIDILSDKKRFSDYSMDFNVLSVSTMGIHQVLLEISFRRLVSPDPDDLEMGAEHTQTEEIMKATAEKEKLRKKNMPDSGPLVFAGHGSSAEEAKQCACKSAIIHFNTYDFTD
~72%

Source: paper PMC13618070
